Each record here notes measured pIC50.
# Tested on: Trypanosoma cruzi
# ASSAY NAME: GSK_TCAKS: pIC50 Trypanosoma cruzi viability assay using beta-GAL activity. This assay was run at single shot at 5uM compound concentration per well. The biological reagents consisted of NIH-3T3 host cells and trypomastigotes parasitic cells; both cell types were set to a 3.3 * 10^5 cells/mL dilution in assay DMEM by means of a CASY cell counter device using a 60um capillary. 6 uL of the mixture were dispensed per well (about 1 * 10^3 host-cells and 1 * 10^3 parasites) with a Multidrop Combi dispenser. […] In all wells, the percentage of DMSO never exceeded 0.5%. Plates incubated for four days at 37C, 5% CO2. The substrate used for the assay fluorescence intensity (FLINT) readout was resorufin-beta-D-galactopiranoside (Sigma-Aldrich) at 5uM per well. It was diluted in PBS supplemented with the soft detergent Igepal (Fluka).
# Type: functional, organism-based, Mus musculus
# ASSAY CONDITIONS: Tulahuen, NIH3T3
pIC50: −log10 of the molar value.

# MOLECULE, pIC50
records = [
    ("Nc1ncnc2c1ncn2[C@@H]1O[C@H](CO)C[C@H]1O [CORDYCEPIN]", 5.95),
    ("COc1ccc(S(=O)(=O)Nc2ccc(CN3CCN(C(=O)c4cccc(C#N)c4)CC3)cc2)cc1", 6.00),
    ("COc1ccc2ncc(=O)n(CCN3CCC(NCc4ccc(-c5cccs5)cc4)CC3)c2n1", 5.70),
    ("c1ccc(Nc2nc3ccccc3[nH]2)nc1", 5.10),
    ("CCC1Oc2cc(S(=O)(=O)N(C)CC(=O)N3CCc4ccccc4C3)c(C)cc2NC1=O (stereo unspecified)", 6.70),
    ("O=C1CN(C(=O)c2cccc(Nc3ncc(-c4ccc5c(c4)OCO5)cn3)c2)CCN1", 5.80),
    ("Cc1nc2c(-c3nc(-c4ccc(N)cc4)n[nH]3)cccn2c1C", 5.20),
    ("N#Cc1nc(C=Cc2ccccc2)oc1NCc1cccnc1", 6.60),
    ("CCCCn1nnnc1CSc1nc(C)cc(C)c1C#N", 6.50),
    ("N#Cc1cccc(Cc2cc(Nc3cc(C4CC4)[nH]n3)nc(N3CC[C@H]3C(N)=O)n2)c1", 6.40),
    ("COCCn1cnc2cc(NC(=O)C3CCCCC3)cc(C(=O)N3CCc4sccc4C3)c21", 4.70),
    ("CN(C)c1ncc(-c2cncn2CCOc2ccc(Cl)cc2)cn1", 6.65),
    ("Cc1cc(NC(=O)C2CCCCC2)n(-c2nc3c(c(=O)[nH]2)CCC3)n1", 6.50),
    ("COc1ccc(C(=O)N2CCC(Nc3cccnc3)C2)c(OC)n1 (stereo unspecified)", 6.50),
    ("Cc1nn(-c2nc(N)nc(-c3ccccn3)n2)c(C)c1Cc1ccccc1", 5.60),
    ("Cc1nc2c(-c3cccs3)c(C)nn2c(NCCO)c1C", 4.40),
]

###

# Tested on: Leishmania donovani
# ASSAY NAME: GSK_TCAKS: pIC50 Leishmania donovani Imaging: THP-1 Host Macrophages. Assay plates (384-well) were prepared by adding 250nL of compound to each well. For single shot assay, the final compound concentration was 5 uM. […] Automated image analysis was performed with a script developed on Acapella High Content Imaging and Analysis Software (PerkinElmer). Output: THP-1 cell count were reported for each well.
# Assay type: functional, organism-based, Homo sapiens
pIC50: −log10 of the molar value.

# COMPOUND, pIC50
records = [
    ("Cc1ccc(C)c(CN2C(=O)NC3(CCc4ccccc43)C2=O)c1 (stereo not given)", "< 4.30"),
    ("COc1ccc(C)cc1-c1csc(NC(=O)C(C)n2ccnc2)n1 (stereo not given)", "< 4.30"),
    ("O=C(NCC1CCCCC1)c1cnns1", "< 4.30"),
    ("CCC(CC)C(=O)Nc1cccc(C(=O)Nc2nnc(C3CCCCC3)s2)c1", "< 4.30"),
    ("Cc1nc2c(-c3cccs3)c(C)nn2c(NCCO)c1C", "< 4.30"),
]

###

Each record here notes measured pIC50.
# System: Trypanosoma cruzi
# ASSAY NAME: GSK_TCAKS: pIC50 H2C9 Imaging: H9c2 Host Cardiomyocytes. […] Cells were then washed once with PBS before infection. T. cruzi trypomastigotes, collected at days 5 to 8 after infection from LLC-MK2 parasite infected cultures, were allowed to swim out for 4h at 37C from a centrifuged pellet (2,500 rpm/10 min/room temperature). Trypomastigotes were then collected and counted in a CASY Cell Counter. Trypomastigotes, in supplemented DMEM, were added to H9c2 cultures in a multiplicity of infection of 1 and incubated for 18 h. Cells were washed once with PBS before incubation of the infected H9c2 monolayer with trypsin (Life-Technologies) to detach cells from the flask. Cells were counted in a CASY Cell Counter using a 150 um capillary and their density set at 5 * 10^4 cells per mL in supplemented assay DMEM. Infected H9c2 were dispensed into 384-well poly-lysine coated assay plates at 50uL per well using a Multidrop Combi dispenser. After seeding them, the plates were incubated at 37C, 5% CO2 for 72h. Cultures were then fixed and stained by addition of 50 uL of a solution containing 8% formaldehyde and 4 uM DRAQ5 DNA dye (BioStatus, UK) per well. […] Five images were collected per well for reliable statistical analysis. Automated image analysis was performed with a script developed on Acapella High Content Imaging and Analysis Software (PerkinElmer). Output: Number of H9c2 Host Cardiomyocytes nuclei to determine drug-related cytotoxicity.
# Type: functional, organism-based, Rattus norvegicus
# ASSAY CONDITIONS: H9c2, 4 h
pIC50: −log10 of the molar value.
MEASURE NAME: pIC50

# COMPOUND, MEASURE NAME, MEASUREMENT QUALIFIER, ENDPOINT VALUE
measured = [
    ("Cc1ncsc1CNc1cnc(-c2ccc3c(c2)OCCO3)c(-c2cnn(C)c2)c1", "pIC50", "<", 4.30),
    ("COc1ccc(Nc2nccc(N(C)c3n[nH]c4c(F)cccc34)n2)cc1S(C)(=O)=O", "pIC50", "=", 5.10),
    ("CNc1nc(C)nc(N2CCc3cc(C(=O)NCc4ccc(-c5nccn5C)cc4Cl)ccc32)n1", "pIC50", "=", 4.30),
    ("COc1ccccc1C=CCN1C[C@H]2CCC[C@@H](C1)C2(O)c1cccnc1 (some centres not stated)", "pIC50", "<", 4.30),
    ("O=C(CSc1ccc(F)cc1)N[C@@H](Cc1c[nH]cn1)C(=O)NCCc1ccccc1", "pIC50", "<", 4.30),
    ("CCNc1cc(-c2ccccn2)nc(Nc2ccccc2)n1", "pIC50", "=", 6.60),
    ("CNS(=O)(=O)c1ccccc1Nc1nc(Nc2cc(C)nn2C)ncc1Cl", "pIC50", "=", 6.60),
    ("O=C(Nc1nc2ccccc2[nH]1)c1c(O)c2cccc3c2n(c1=O)CC3", "pIC50", "=", 5.00),
    ("CS(=O)(=O)c1ccccc1C(=O)N(Cc1ccccc1)c1ccccc1", "pIC50", "<", 4.30),
    ("CCc1cccc(CC)c1-n1c(SCC(=O)NC(=O)NCc2ccco2)nnc1-c1cccnc1", "pIC50", "<", 4.30),
    ("Cc1ccccc1NS(=O)(=O)c1ccc2[nH]cc(C(=O)NC3CCCCC3)c(=O)c2c1", "pIC50", "=", 4.60),
    ("CCCCc1cc(Nc2cc(C3CCC3)[nH]n2)nc(N2CCC2C(N)=O)n1 (configuration not stated)", "pIC50", "=", 6.10),
]

###

# ASSAY NAME: GSK_TCAKS: pIC50 HepG2 human cell line viability assay using luminiscence. […] Seeding density was checked to ensure that new mono-layers were not more than 50% confluent at the time of harvesting. Cell suspension was added to 500 mL of the same medium at a final density of 1.2 * 10^5 cells/mL. This cell suspension was dispensed (25 uL, 3000 cells per well) into 384-well clear-bottom plates using a Multidrop Combi dispenser. Prior to addition of the cell suspension, the screening compounds (250 nL) were pre-dispensed into the plates with an Echo liquid handler. Plates were incubated for 48 h at 37C, 5% CO2. After incubation, plates equilibrated at room temperature for 30 min before proceeding to develop the luminescent signal. The signal developer, CellTiter-Glo Reagent, was allowed to equilibrate at room temperature for 30 min and added to the plates (25uL per well) using a Multidrop Combi dispenser. Plates were left for 10 min at room temperature for stabilization and then read using a ViewLux.
# Format: toxicity, cell-based
Please assign not fulfilled whenever IC50 at 48 h is at or above 20 µM, and fulfilled whenever it is below.

# MOLECULE, ASSIGNED LABEL
records = [
    ("Cc1nn2c(=O)c3c([nH]c2c1-c1ccc(Br)cc1)CCCC3", "not fulfilled"),
    ("COc1ccc(NS(=O)(=O)c2cc(-c3cc(C)n[nH]3)ccc2C)cc1OC", "not fulfilled"),
    ("CCc1cccc(CC)c1-n1c(SCC(=O)N2CC(=O)Nc3ccccc32)nnc1-c1cccnc1", "not fulfilled"),
    ("NS(=O)(=O)c1ccc(Nc2ncc3cccc(OC4CCNCC4)c3n2)cc1", "not fulfilled"),
    ("Cn1ccnc1CN1CCc2[nH]cnc2C1c1ccccc1OCc1ccccc1 (configuration not stated)", "not fulfilled"),
    ("CC1CN(S(=O)(=O)c2ccc(NC(=O)c3cc(C4CC4)nc4c3cnn4C(C)C)cc2)CC(C)O1 (configuration not stated)", "not fulfilled"),
    ("COc1ccc(S(=O)(=O)Nc2ccc(CN3CCN(C(=O)c4cccc(C#N)c4)CC3)cc2)cc1", "not fulfilled"),
    ("COc1ccc([N+](=O)[O-])cc1NC(=O)c1cc(Cl)ccc1O", "fulfilled"),
    ("Cc1ccc(S(=O)(=O)Cn2nnnc2C(c2cccnc2)N2CCN(c3ccccc3)CC2)cc1 (configuration not stated)", "not fulfilled"),
    ("Cc1sc(C)c(C(F)(F)F)c1CNCCCNc1cc(=O)c2ccccc2[nH]1", "not fulfilled"),
    ("COc1cccc2sc(CN(C)C(=O)C3CNCCN3c3ccc(F)cc3)c(C)c12 (configuration not stated)", "fulfilled"),
    ("C[C@@H](Oc1cc(-n2cnc3ccc(O[C@H]4CCNC4)cc32)sc1C(N)=O)c1ccccc1Cl", "fulfilled"),
    ("CCNc1cc(-c2ccccn2)nc(Nc2ccccc2)n1", "not fulfilled"),
    ("COc1ccc(C2CC(c3ccccc3Cl)=NN2C(=O)CNC(=O)C2CCC2)cc1 (configuration not stated)", "not fulfilled"),
    ("COc1ccnc2[nH]cc(-c3cc(C(=O)N[C@H](CO)c4ccccc4)co3)c12", "fulfilled"),
    ("CC(C(=O)Nc1ccccc1F)N(C)CC(=O)Nc1cccc2ccccc12 (configuration not stated)", "not fulfilled"),
]
